Quick list: growth per entry.
Tested on: NCI-H226 lung
Assay: NCI-60 one-dose screen, 48 h (100 = growth as untreated, 0 = no growth, -100 = all killed)
Conditions: 10 µM unless noted
About 83,000 compounds went through this panel and 20% of them were active in at least one assay; those are over-represented in the sample as a whole.
Provide only the numeric value, understood in %.

compound	growth [%]
CCc1nc2cc(F)c(/C=C/C(=O)NO)cc2c(=O)n1CCc1ccccc1	32.7
COc1cc(Nc2ncc(F)c(Nc3ccc4c(n3)NC(=O)C(C)(C)O4)n2)cc(OC)c1OC	12.2
Nc1nc(=S)c2ncn(C3OC(COC(=O)c4ccc(Cl)cc4)C(OC(=O)c4ccc(Cl)cc4)C3OC(=O)c3ccc(Cl)cc3)c2[nH]1 (centres undefined)	86.9
Clc1ccc(/C=C/c2cc(N3CCOCC3)c3cc(Cl)c(Cl)cc3n2)cc1	85.5
CC(C)[C@@H]1CC[C@]2(CO2)[C@@H]2C(=O)OCC(C(=O)O)=C[C@H]21	25.5
CCc1nc(C(N)=O)c(Nc2ccc(N3CCC(N4CCN(C)CC4)CC3)c(OC)c2)nc1NC1CCOCC1	38.2

State the recorded growth for this entry: `COc1ccc2c(c1)cn1c3ccc(O)cc3nc(N)c21`
45.2

State the recorded growth for this entry: `CC[C@H](Nc1ncnc2nc[nH]c12)c1nc2cccc(F)c2c(=O)n1-c1ccccc1`
93.3

State the recorded growth for this entry: `COc1cnc2c(c1)C(=O)c1c-2n(CCCN2CCOCC2)c(=O)c2cc(Cl)ccc12`
20.6

---

System: NCI/ADR-RES ovarian
Test: NCI-60 one-dose screen, 48 h (100 = growth as untreated, 0 = no growth, -100 = all killed)
Conditions: 10 µM unless noted
Compounds without any hit were thinned out: in the full panel of roughly 83,000, 20% have a hit.
Quick list: growth per entry.
Provide only the numeric value, understood in %.

compound	growth / %
CO[C@H]1C[C@@H]2CC[C@@H](C)[C@@](O)(O2)C(=O)C(=O)N2CCCC[C@H]2C(=O)O[C@H]([C@H](C)C[C@@H]2CC[C@@H](OP(C)(C)=O)[C@H](OC)C2)CC(=O)[C@H](C)/C=C(\C)[C@@H](O)[C@@H](OC)C(=O)[C@H](C)C[C@H](C)\C=C/C=C/C=C/1C	51.4

State the recorded growth for this entry: C=CCCCC(=O)CCC(=O)OCC1O[C@@H](O[C@@H]2C(O)[C@@H](OC(C)=O)C(C)O[C@H]2O[C@H](CC=C)CCCCC)C(O)[C@@H](OC(=O)/C(C)=C/C)[C@@H]1OC(=O)/C=C/c1ccccc1 (some centres not stated)
49.2

State the recorded growth for this entry: `Cc1c(N)ccc(-c2ccc(N)c(C)c2S(=O)(=O)O)c1S(=O)(=O)O`
102

State the recorded growth for this entry: `O=C(Cn1ccnc1)Nc1ccc(-c2nc3ccccc3s2)cc1`
88.2

State the recorded growth for this entry: CCCCCCC1(/C=N/NC(N)=O)NC(=O)NC1=O (configuration not stated)
100

State the recorded growth for this entry: `CC(C)c1cc(CNc2nc(Nc3cc(C4CC4)[nH]n3)cc(N3CCN(C)CC3)n2)on1`
39.2

State the recorded growth for this entry: `COc1cc2ncnc(Oc3cccc(NC(=O)Nc4cc(C(C)(C)C(F)(F)F)on4)c3)c2cc1OC`
23.9

Recorded values, source PubChem BioAssay (NCI).
